# Test system: HeLa Kyoto;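 note: HeLa Kyoto cells synchronized by double thymidine or nocodazole block, proteins quantified by TMT10plex mass spectrometry, three independent biological replicates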
# test_details: melting temperature (median over replicates), in situ; higher = more thermally stable
# condition_parameters: cell cycle stage: G1/S
Reported values of melting temperature for individual entries

{"chain_sequence": "MIVQRVVLNSRPGKNGNPVAENFRMEEVYLPDNINEGQVQVRTLYLSVDPYMRCRMNEDTGTDYITPWQLSQVVDGGGIGIIEESKHTNLTKGDFVTSFYWPWQTKVILDGNSLEKVDPQLVDGHLSYFLGAIGMPGLTSLIGIQEKGHITAGSNKTMVVSGAAGACGSVAGQIGHFLGCSRVVGICGTHEKCILLTSELGFDAAINYKKDNVAEQLRESCPAGVDVYFDNVGGNISDTVISQMNENSHIILCGQISQYNKDVPYPPPLSPAIEAIQKERNITRERFLVLNYKDKFEPGILQLSQWFKEGKLKIKETVINGLENMGAAFQSMMTGGNIGKQIVCISEEISL [PTGR2]", "melting temperature (°C)": 50.5}
{"chain_sequence": "MSDLQAAEGPGSWSPTARPGSAGGVGDCQGVEGSQAAASENEDLENKDTSLLASATDPEPCSSPHRPQMVSPVSKDATEDLRKATGPLEAQALVKQDLLPADQAQVLNEMAKYQVPQRSGDIVMIQSEHTGAIDVLSADLESADLLGDHRKVSPPLMAPPCIWTFAKVKEFKSKLGKEKNSRLVVKRGEVVTIRVPTHPEGKRVCWEFATDDYDIGFGVYFDWTPVTSTDITVQVSDSSDDEDEEEEEEEEIEEPVPAGDVERGSRSSLRGRYGEVMPVYRRDSHRDVQAGSHDYPGEGIYLLKFDNSYSLLRNKTLYFHIYYTS [TMED8]", "melting temperature (°C)": 50.4}
{"chain_sequence": "MADDQGCIEEQGVEDSANEDSVDAKPDRSSFVPSLFSKKKKNVTMRSIKTTRDRVPTYQYNMNFEKLGKCIIINNKNFDKVTGMGVRNGTDKDAEALFKCFRSLGFDVIVYNDCSCAKMQDLLKKASEEDHTNAACFACILLSHGEENVIYGKDGVTPIKDLTAHFRGDRCKTLLEKPKLFFIQACRGTELDDGIQADSGPINDTDANPRYKIPVEADFLFAYSTVPGYYSWRSPGRGSWFVQALCSILEEHGKDLEIMQILTRVNDRVARHFESQSDDPHFHEKKQIPCVVSMLTKELYFSQ [CASP7]", "melting temperature (°C)": 53.9}
{"chain_sequence": "MGDREQLLQRARLAEQAERYDDMASAMKAVTELNEPLSNEDRNLLSVAYKNVVGARRSSWRVISSIEQKTMADGNEKKLEKVKAYREKIEKELETVCNDVLSLLDKFLIKNCNDFQYESKVFYLKMKGDYYRYLAEVASGEKKNSVVEASEAAYKEAFEISKEQMQPTHPIRLGLALNFSVFYYEIQNAPEQACLLAKQAFDDAIAELDTLNEDSYKDSTLIMQLLRDNLTLWTSDQQDEEAGEGN [YWHAH]", "melting temperature (°C)": 52.5}
{"chain_sequence": "MSQTAMSETYDFLFKFLVIGNAGTGKSCLLHQFIEKKFKDDSNHTIGVEFGSKIINVGGKYVKLQIWDTAGQERFRSVTRSYYRGAAGALLVYDITSRETYNALTNWLTDARMLASQNIVIILCGNKKDLDADREVTFLEASRFAQENELMFLETSALTGENVEEAFVQCARKILNKIESGELDPERMGSGIQYGDAALRQLRSPRRAQAPNAQECGC [RAB4A]", "melting temperature (°C)": 59.5}
{"chain_sequence": "MFHGIPATPGIGAPGNKPELYEEVKLYKNAREREKYDNMAELFAVVKTMQALEKAYIKDCVSPSEYTAACSRLLVQYKAAFRQVQGSEISSIDEFCRKFRLDCPLAMERIKEDRPITIKDDKGNLNRCIADVVSLFITVMDKLRLEIRAMDEIQPDLRELMETMHRMSHLPPDFEGRQTVSQWLQTLSGMSASDELDDSQVRQMLFDLESAYNAFNRFLHA [VPS28]", "melting temperature (°C)": 51.5}
{"chain_sequence": "MRKVVLITGASSGIGLALCKRLLAEDDELHLCLACRNMSKAEAVCAALLASHPTAEVTIVQVDVSNLQSVFRASKELKQRFQRLDCIYLNAGIMPNPQLNIKALFFGLFSRKVIHMFSTAEGLLTQGDKITADGLQEVFETNVFGHFILIRELEPLLCHSDNPSQLIWTSSRSARKSNFSLEDFQHSKGKEPYSSSKYATDLLSVALNRNFNQQGLYSNVACPGTALTNLTYGILPPFIWTLLMPAILLLRFFANAFTLTPYNGTEALVWLFHQKPESLNPLIKYLSATTGFGRNYIMTQKMDLDEDTAEKFYQKLLELEKHIRVTIQKTDNQARLSGSCL [HSD17B7]", "melting temperature (°C)": 52.8}
{"chain_sequence": "MVEADRPGKLFIGGLNTETNEKALEAVFGKYGRIVEVLLMKDRETNKSRGFAFVTFESPADAKDAARDMNGKSLDGKAIKVEQATKPSFESGRRGPPPPPRSRGPPRGLRGGRGGSGGTRGPPSRGGHMDDGGYSMNFNMSSSRGPLPVKRGPPPRSGGPPPKRSAPSGPVRSSSGMGGRAPVSRGRDSYGGPPRREPLPSRRDVYLSPRDDGYSTKDSYSSRDYPSSRDTRDYAPPPRDYTYRDYGHSSSRDDYPSRGYSDRDGYGRDRDYSDHPSGGSYRDSYESYGNSRSAPPTRGPPPSYGGSSRYDDYSSSRDGYGGSRDSYSSSRSDLYSSGRDRVGRQERGLPPSMERGYPPPRDSYSSSSRGAPRGGGRGGSRSDRGGGRSRY [RBMX]", "melting temperature (°C)": 47.5}
{"chain_sequence": "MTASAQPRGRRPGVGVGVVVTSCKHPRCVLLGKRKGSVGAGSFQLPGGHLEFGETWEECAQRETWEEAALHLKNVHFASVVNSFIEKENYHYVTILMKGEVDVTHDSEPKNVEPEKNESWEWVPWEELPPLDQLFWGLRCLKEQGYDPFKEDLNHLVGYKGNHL [NUDT15]", "melting temperature (°C)": 53.4}
{"chain_sequence": "MDVLAEANGTFALNLLKTLGKDNSKNVFFSPMSMSCALAMVYMGAKGNTAAQMAQILSFNKSGGGGDIHQGFQSLLTEVNKTGTQYLLRMANRLFGEKSCDFLSSFRDSCQKFYQAEMEELDFISAVEKSRKHINTWVAEKTEGKIAELLSPGSVDPLTRLVLVNAVYFRGNWDEQFDKENTEERLFKVSKNEEKPVQMMFKQSTFKKTYIGEIFTQILVLPYVGKELNMIIMLPDETTDLRTVEKELTYEKFVEWTRLDMMDEEEVEVSLPRFKLEESYDMESVLRNLGMTDAFELGKADFSGMSQTDLSLSKVVHKSFVEVNEEGTEAAAATAAIMMMRCARFVPRFCADHPFLFFIQHSKTNGILFCGRFSSP [SERPINB6]", "melting temperature (°C)": 55.8}

// data source = the supplement of paper PMC5998384
